- TEST DETAILS: in vitro
- CONDITION NOTES: African green monkey
PARAMETER: CC50

- COMPOUND: "CCN(CC)CCOc1ccc2c(c1)C(=O)c1cc(OCCN(CC)CC)ccc1-2 [tilorone]"
  MEASURED RESULT: "49.6 µM"
- COMPOUND: "CCN(CC)CCCC(C)Nc1c2ccc(Cl)cc2nc2ccc(OC)cc12 (stereo not drawn) [quinacrine]"
  MEASURED RESULT: "7.33 µM"
- COMPOUND: "COc1ccc2nc3cc(Cl)ccc3c(Nc3cc(CN4CCCC4)c(O)c(CN4CCCC4)c3)c2n1 [pyronaridine]"
  MEASURED RESULT: "3.52 µM"

Numbers sourced from paper PMC7992063.
